# experiment: Retardation factor of the compound using 1-BuOH-AcOH-H2O at ratio of 4:1:5 as solvent system by thin layer chromatography
# Assay type: physicochemical
assay.endpoint: Rf

substance | measured.result
H-HSDGTFTSELSRLRDSARLQRLLQGLV-NH2 | 0.19
H-YHSDGTFTSELSRLRDSARLQRLLQGLV-NH2 | 0.18
H-HSDGTYTSELSRLRDSARLQRLLQGLV-NH2 | 0.18
H-YSDGTFTSELSRLRDSARLQRLLQGLV-NH2 | 0.2
